Where do these numbers come from? They come from patent US9211296B2.

# METHOD SUMMARY: WST-1 cytotoxicity assay
# CONDITIONS: African green monkey, BS-C-1 cells
RECORDED ENDPOINT: CC50 at 120 h (µM)
A number alone suffices; assume µM.

[Q] Quick check: CC50 at 120 h of `Cc1c(/N=C/c2cc(Br)cc(Br)c2Br)cccc1C(=O)O` ?
[A] 20

Next:
[Q] Data request, read-out CC50 at 120 h, for `CCS(=O)(=O)N1CCN=C1SCc1ccc(Cl)cc1Cl`
[A] 25

---

# System: vaccinia virus WR
# Format: cell-based
RECORDED ENDPOINT: trapped by dsDNA

Please review the entries below; each comes with its answer.
[Q] Any idea what its trapped by dsDNA is? The compound is Nc1ccn(C[C@@H](CO)OCP(=O)(O)O)c(=O)n1 [Cidofovir, reference compound]
[A] no

[Q] Similarly, `COC(=O)c1cccc2c1-c1ccccc1/C2=N\O` ?
[A] no

[Q] Now the compound `N=C1/C(=C/c2coc3ccccc3c2=O)C(=O)N=C2SC=NN12`
[A] no

[Q] Entry `O=C(O)Cn1c2ccc(Cl)cc2c2nc3ccccc3nc21` please
[A] no

Field: next compound
[Q] So what does the record say about trapped by dsDNA for `Cc1c(/N=C/c2cc(Br)cc(Br)c2Br)cccc1C(=O)O` ?
[A] no

---

CC50: recorded values
# METHOD SUMMARY: aCella-TOX GAPDH release cytotoxicity assay (viridicatumtoxin study)
# CONDITIONS: African green monkey, BSC-1 cells

[Q] GET /values?readout=CC50&item= CN(C)C1C(O)=C(C(N)=O)C(=O)C2(O)C(O)=C3C(=O)c4c(O)cccc4C(C)(O)C3CC12.CS(=O)(=O)O (centres unmarked) [NSC 69343, methanesulfonate, reference compound]
[A] > 200 µM

Next:
[Q] Quick one: CC50 of `COc1cc(O)c2c(O)c3c(c4c2c1[C@]1(C4)C(C)=CCCC1(C)C)[C@H](O)[C@@]1(O)CC(O)=C(C(N)=O)C(=O)[C@@]1(O)C3=O` ?
[A] > 200 µM

---

Recorded tox 20 h TC50 values for a group of molecules are listed next.
# Test system: BS-C-1 cells
# METHOD SUMMARY: WST-1 cytotoxicity assay
# CONDITIONS: 20 h, Table 6

[Q] Which tox 20 h TC50 is reported for this molecule? `N=C1/C(=C/c2coc3ccccc3c2=O)C(=O)N=C2SC=NN12`
[A] >200 µM

[Q] One more molecule: `O=C(Nc1ccccc1C(=O)O)OCC1c2ccccc2-c2ccccc21`
[A] >200 µM

[Q] Continue with `O=C(O)Cn1c2ccc(Cl)cc2c2nc3ccccc3nc21`
[A] >100 µM

[Q] Repeat for the following molecule: `CCNc1nc(SCc2ccc(Cl)cc2)nc2sc3c(c12)CCN(C)C3`
[A] 155 µM

[Q] What about Nc1ccn(C[C@@H](CO)OCP(=O)(O)O)c(=O)n1 [Cidofovir, reference compound] ?
[A] >500 µM

[Q] Please give the result for `COC(=O)c1cccc2c1-c1ccccc1/C2=N\O` too.
[A] 127 µM

[Q] What do you have for `Cc1cc(OC(=O)c2ccco2)nc(SCc2c(Cl)cccc2Cl)n1` ?
[A] >100 µM

[Q] Continue with O=C1/C(=C/C2CCCO2)CC/C1=C\C1CCCO1 (stereo not drawn)
[A] >100 µM

[Q] Same question, `Cc1cc(/N=C/c2cc(Cl)cc(Cl)c2O)no1` this time
[A] >200 µM
